// provenance: paper PMC11901902

Tested on: MCF-7 cells
Assay: MTT cytotoxicity assay on MCF-7 cells
Type: cell-based
Details: Homo sapiens, MCF7; Table S2; read-out: IC50 (µM) on MCF-7 cell line
RECORDED_ENDPOINT: IC50 (µM)
Express your answer in µM, writing the number without its unit.

Example cases with answers are listed next.
> print(dat)
                                   compound          tgt  number
1  COc1ccc2c(c1)C(=Nc1ccc3nc[nH]c(=O)c3c1)C(=O)N2 [Compound 13]  MCF-7 cells     123
2  O=C1Nc2ccc(Br)cc2C1=Nc1ccc2nc[nH]c(=O)c2c1 [Compound 10]  MCF-7 cells     112

Please find the next compound below.
Enter reported IC50 observed with MCF-7 cells for O=C1Nc2ccccc2C1=Nc1ccc(-c2nc3ccccc3c(=O)[nH]2)cc1 [Compound 18]
143

###

IC50 listing for selected molecules.
System: MCF-7 cells
Test: MTT cytotoxicity assay on MCF-7 cells
Assay type: cell-based
Conditions: Homo sapiens, MCF7; MTT, 24 h treatment; mean of three experiments ± SEM; read-out: IC50 (µM) MCF-7
Respond numerically; units are µM and should not be typed.

> print(dat)
                                   molecule  result.units  number
1  O=C1Nc2ccc(F)cc2/C1=N/c1ccc(-c2nc3ccccc3c(=O)[nH]2)cc1 [Compound 19]            µM    40.8
2  Cc1ccc2c(c1)C(=Nc1ccc(-c3nc4ccccc4c(=O)[nH]3)cc1)C(=O)N2 [Compound 23]            µM    15.3

Could you share what IC50 was measured for O=C1Nc2ccc([N+](=O)[O-])cc2C1=Nc1ccc(-c2nc3ccccc3c(=O)[nH]2)cc1 [Compound 22] , tested on MCF-7 cells?
14.9

// query: O=C1Nc2ccccc2C1=Nc1ccc2nc[nH]c(=O)c2c1 [Compound 7]
21.9

Also, O=C1Nc2ccc(Cl)cc2C1=Nc1ccc(-c2nc3ccccc3c(=O)[nH]2)cc1 [Compound 20] please.
5.28

Entry Cc1ccc2c(c1)C(=Nc1ccc3nc[nH]c(=O)c3c1)C(=O)N2 [Compound 12] please
46.2

###

Test system: HepG-2 cells
Experiment: MTT cytotoxicity assay on HepG-2 cells
Assay type: cell-based, human
Settings: Homo sapiens, HepG2; HepG-2, 80 µM, Table S1
RECORDED_ENDPOINT: viability at 80 µM (%)
Kindly answer with a numeric value in %, unit omitted.

> print(dat)
                            chemical.string   recorded.endpoint  result.units  number
1  O=C1Nc2ccc(Cl)cc2C1=Nc1ccc2nc[nH]c(=O)c2c1  viability at 80 µM             %    16.3
2  Cc1ccc2c(c1)C(=Nc1ccc3nc[nH]c(=O)c3c1)C(=O)N2  viability at 80 µM             %    36.3
3  O=C1Nc2ccc(F)cc2/C1=N/c1ccc(-c2nc3ccccc3c(=O)[nH]2)cc1  viability at 80 µM             %    13.6
4  Cc1ccc2c(c1)C(=Nc1ccc(-c3nc4ccccc4c(=O)[nH]3)cc1)C(=O)N2  viability at 80 µM             %     9.5

# query: viability at 80 µM | item `COc1ccc2c(c1)C(=Nc1ccc3nc[nH]c(=O)c3c1)C(=O)N2` | system: HepG-2 cells
7.9

Next molecule up: `O=C1Nc2ccc([N+](=O)[O-])cc2C1=Nc1ccc2nc[nH]c(=O)c2c1`
44.1

###

Test system: MCF-7 cells
Experiment: MTT cytotoxicity assay on MCF-7 cells
Format: cell-based
Conditions: Homo sapiens, MCF7; MTT, 24 h treatment; mean of three experiments ± SEM; read-out: IC50 (µM) MCF-7
Reported IC50 values follow for various compounds
API: value field is a number in µM; no unit string.

Which IC50 reading was recorded for the compound O=C1Nc2ccc(Cl)cc2C1=Nc1ccc2nc[nH]c(=O)c2c1 [Compound 9] ?
7.54

Queued: O=C1Nc2ccc(Br)cc2C1=Nc1ccc(-c2nc3ccccc3c(=O)[nH]2)cc1 [Compound 21]
33.6

Further, for O=C1Nc2ccc(F)cc2/C1=N/c1ccc2nc[nH]c(=O)c2c1 [Compound 8] ?
52.8

How about this compound: COc1ccc2c(c1)C(=Nc1ccc(-c3nc4ccccc4c(=O)[nH]3)cc1)C(=O)N2 [Compound 24]
18.5

###

Recorded viability at 80 µM for the following molecules
Tested on: HepG-2 cells
Assay: MTT cytotoxicity assay on HepG-2 cells
Assay type: cell-based, human
Conditions: Homo sapiens, HepG2; HepG-2, 80 µM, Table S1
Could you give me the number in %? Just the number is fine.

Worked cases, answers included:
> print(dat)
                            chemical.string  number
1  O=C1Nc2ccc(F)cc2/C1=N/c1ccc2nc[nH]c(=O)c2c1    15.1
2  COc1ccc2c(c1)C(=Nc1ccc(-c3nc4ccccc4c(=O)[nH]3)cc1)C(=O)N2    23.9

Request the reported viability at 80 µM associated with `O=C1Nc2ccc(Cl)cc2C1=Nc1ccc(-c2nc3ccccc3c(=O)[nH]2)cc1`
15.2

###

Test system: MCF-7 cells
Experiment: MTT cytotoxicity assay on MCF-7 cells
Format: cell-based
Settings: Homo sapiens, MCF7; MCF-7, 80 µM, Table S2
RECORDED_ENDPOINT: viability at 80 µM (%)
Unit % implied. Number only.

Worked set:
> print(dat)
                                   molecule  number
1  COc1ccc2c(c1)C(=Nc1ccc(-c3nc4ccccc4c(=O)[nH]3)cc1)C(=O)N2 [Compound 24]    11.1
2  O=C1Nc2ccc(F)cc2/C1=N/c1ccc(-c2nc3ccccc3c(=O)[nH]2)cc1 [Compound 19]    16.4

Here is another molecule to look at.
Which measured viability at 80 µM belongs to COc1ccc2c(c1)C(=Nc1ccc3nc[nH]c(=O)c3c1)C(=O)N2 [Compound 13] , tested on MCF-7 cells?
60.8
